Each recorded value in this set is attributed to patent US20040024024A1.

Parameter IC50: see the listing below.
Target: Human recombinant MMP-1 (Homo sapiens)
Construct: made in house; host or cells: MMP-1-transfected HT-1080 cells (spent media)
Sequence (P03956 100-469): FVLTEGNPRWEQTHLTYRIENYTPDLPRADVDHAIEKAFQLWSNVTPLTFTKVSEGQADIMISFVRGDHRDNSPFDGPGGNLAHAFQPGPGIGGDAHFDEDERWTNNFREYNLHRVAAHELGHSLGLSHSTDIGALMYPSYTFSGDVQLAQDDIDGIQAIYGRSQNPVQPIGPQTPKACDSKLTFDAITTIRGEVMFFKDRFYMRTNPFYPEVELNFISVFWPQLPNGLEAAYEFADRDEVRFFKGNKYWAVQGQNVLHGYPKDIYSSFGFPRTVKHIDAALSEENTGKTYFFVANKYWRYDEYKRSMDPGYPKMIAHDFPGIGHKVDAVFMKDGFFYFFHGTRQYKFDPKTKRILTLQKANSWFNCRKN
Assay: In vitro MMP inhibition, IC50 determination (fluorogenic substrate I)
Format: biochemical
Conditions: value outside parenthesis

Worked examples follow.
Compound	Tested system	IC50
COCCN1CCC(C(=O)NO)(S(=O)(=O)c2ccc(OCCCn3nnc(-c4ccc(C(F)(F)F)cc4)n3)cc2)CC1 [Example 103]	Human recombinant MMP-1 (Homo sapiens)	> 10 µM
CC(C)c1ccc(-c2cccc(CCCOc3ccc(S(=O)(=O)C4(C(=O)NO)CCOCC4)cc3)c2)cc1 [Example 160]	Human recombinant MMP-1 (Homo sapiens)	> 10 µM
COCCN1CCC(C(=O)NO)(S(=O)(=O)c2ccc(OCCCc3nc(-c4ccc(OC(F)(F)F)cc4)no3)cc2)CC1 [Example 190]	Human recombinant MMP-1 (Homo sapiens)	> 10 µM
COc1ccc(-c2nnn(CCCOc3ccc(S(=O)(=O)C4(C(=O)NO)CCOCC4)cc3)n2)cc1 [Example 252]	Human recombinant MMP-1 (Homo sapiens)	5.6 µM
C[C@@H]1C(=O)N(CCCOc2ccc(S(=O)(=O)C3(C(=O)NO)CCOCC3)cc2)C(=O)N1c1ccccc1 [Example 145]	Human recombinant MMP-1 (Homo sapiens)	> 10 µM

The record that follows has no IC50 shown yet.
Q: So what's the measured IC50 for this one? O=C(NO)C1(S(=O)(=O)c2ccc(OCCCc3cccc(Cc4ccccc4)c3)cc2)CCOCC1 [Example 98]
Ans: > 10 µM
